- Test system: Mycobacterium tuberculosis
- Assay Comment: Antitubercular activity against Mycobacterium tuberculosis H37Rv after 7 to 11 days by microdilution method
- Assay type: functional
Reported MIC90 values follow for various compounds

>>> result("Cc1ccc(NC(=O)Cc2cccc(Oc3ccccc3)c2)nc1")
"8 µg/mL"
>>> result("O=C(Cc1cccc(Oc2ccccc2)c1)Nc1ccc([N+](=O)[O-])cc1")
"8 µg/mL"
>>> result("O=C(CCc1cccc(Oc2ccccc2)c1)Nc1cccc(Cl)c1")
"16 µg/mL"
>>> result("O=C(Nc1cccc(Cl)c1)c1ccc(Oc2ccccc2)cc1")
"16 µg/mL"
>>> result("O=C(Cc1cccc(Oc2ccccc2)c1)Nc1cccc2ccccc12")
"32 µg/mL"

Q: MIC90 lookup needed for NNC(=O)c1ccncc1 , thanks.
A: 0.0625 µg/mL

Q: MIC90 lookup needed for O=C(Cc1cccc(Oc2ccccc2)c1)Nc1nccs1 , thanks.
A: 16 µg/mL

Q: MIC90 lookup needed for O=C(Cc1cccc(Oc2ccccc2)c1)Nc1ccc(C(F)(F)F)cc1 , thanks.
A: 8 µg/mL

Q: MIC90 lookup needed for O=C(Cc1cccc(Oc2ccccc2)c1)Nc1ccc(OC(F)(F)F)cc1 , thanks.
A: 16 µg/mL

Q: MIC90 lookup needed for O=C(Cc1cccc(Oc2ccccc2)c1)Nc1ccc(Br)cc1 , thanks.
A: 16 µg/mL

Q: MIC90 lookup needed for O=C(Cc1cccc(Oc2ccccc2)c1)Nc1cccc(Cl)c1 , thanks.
A: 16 µg/mL

----------
- Test system: Mycobacterium tuberculosis
- Assay Comment: Antitubercular activity against Mycobacterium tuberculosis H37Rv after 7 to 11 days by microdilution method
- Format: functional
Measured Endpoint: MIC (µg/mL)
Answer with a number only, understood to be in µg/mL.

Example entries and their recorded answers appear below.
>>> numeric_result("O=C(Nc1cccc(Cl)c1)c1ccc(Oc2ccccc2)cc1")
32
>>> numeric_result("NNC(=O)c1ccncc1")
0.0625
>>> numeric_result("O=C(Cc1cccc(Oc2ccccc2)c1)Nc1cccc2ccccc12")
64
>>> numeric_result("O=C(Cc1cccc(Oc2ccc(F)cc2)c1)Nc1cccc(Cl)c1")
32
>>> numeric_result("O=C(Cc1cccc(Oc2ccc(Cl)cc2)c1)Nc1cccc(Cl)c1")
32
>>> numeric_result("COc1ccc2nc(NC(=O)Cc3cccc(Oc4ccccc4)c3)sc2c1")
16

Q: MIC lookup needed for O=C(Cc1cccc(Oc2ccccc2)c1)NC(c1ccccc1)c1ccccc1 , thanks.
A: 32

Q: MIC lookup needed for O=C(Cc1cccc(Oc2ccccc2)c1)Nc1cccc(Cl)c1 , thanks.
A: 32

Q: MIC lookup needed for O=C(Cc1cccc(Oc2ccccc2)c1)Nc1ccc(Br)cc1 , thanks.
A: 64

Q: MIC lookup needed for O=C(Cc1cccc(Oc2ccccc2)c1)Nc1ccc(OC(F)(F)F)cc1 , thanks.
A: 32

Q: MIC lookup needed for COc1ccc(NC(=O)Cc2cccc(Oc3ccccc3)c2)c(OC)c1 , thanks.
A: 32

----------
- Assay Comment: Growth inhibition of human HepG2 cells at 20 uM after 48 hrs by MTT assay
- Assay type: cell-based
- Condition: read-out: GI
Reported inhibition at 48 h, 20 µM values follow for various compounds
# output: number + unit

>>> result("O=C(CCc1cccc(Oc2ccccc2)c1)Nc1cccc(Cl)c1")
"25.1%"
>>> result("O=C(Cc1cccc(Oc2ccccc2)c1)Nc1cccc2ccccc12")
"3.31%"
>>> result("Cc1ccc(NC(=O)Cc2cccc(Oc3ccccc3)c2)nc1")
"12.2%"
>>> result("NNC(=O)c1ccncc1 [ISONIAZID]")
"3.51%"
>>> result("O=C(Cc1cccc(Oc2ccccc2)c1)Nc1ccc(Br)cc1Cl")
"12.8%"
>>> result("O=C(Cc1cccc(Oc2ccccc2)c1)Nc1cccc([N+](=O)[O-])c1")
"0.95%"
>>> result("N#Cc1ccccc1NC(=O)Cc1cccc(Oc2ccccc2)c1")
"19.1%"
>>> result("O=C(Cc1cccc(Oc2ccc(F)cc2)c1)Nc1cccc(Cl)c1")
"23.5%"

Q: inhibition at 48 h, 20 µM lookup needed for O=C(Cc1cccc(Oc2ccccc2)c1)Nc1ccc(Cl)c(Cl)c1 , thanks.
A: 7%

Q: inhibition at 48 h, 20 µM lookup needed for O=C(Cc1cccc(Oc2ccccc2)c1)Nc1cccc(Cl)c1 , thanks.
A: 7.95%

Q: inhibition at 48 h, 20 µM lookup needed for O=C(Cc1cccc(Oc2ccccc2)c1)Nc1ccc([N+](=O)[O-])cc1 , thanks.
A: 36.4%

Q: inhibition at 48 h, 20 µM lookup needed for O=C(Cc1cccc(Oc2ccc(Cl)cc2)c1)Nc1cccc(Cl)c1 , thanks.
A: 27.1%

Q: inhibition at 48 h, 20 µM lookup needed for O=C(Cc1cccc(Oc2ccccc2)c1)Nc1ccc(Br)cc1 , thanks.
A: 15.7%

Q: inhibition at 48 h, 20 µM lookup needed for O=C(Cc1cccc(Oc2ccccc2)c1)Nc1nccs1 , thanks.
A: 39.9%

----------
- System: Mycobacterium tuberculosis
- Assay Comment: Antitubercular activity against Mycobacterium tuberculosis H37Rv after 7 to 11 days by microdilution method
- Type: functional
Reported MIC values follow for various compounds
Answer with a number only, understood to be in µg/mL.

>>> numeric_result("O=C(Cc1cccc(Oc2ccccc2)c1)Nc1ccc(Br)cc1Cl")
32

Q: MIC lookup needed for O=C(Nc1cccc(Cl)c1)c1cccc(Oc2ccccc2)c1 , thanks.
A: 32

Q: MIC lookup needed for Cc1ccc(NC(=O)Cc2cccc(Oc3ccccc3)c2)nc1 , thanks.
A: 32

Q: MIC lookup needed for O=C(Cc1cccc(Oc2ccccc2)c1)Nc1ccc(Cl)c(Cl)c1 , thanks.
A: 4

Q: MIC lookup needed for O=C(CCCc1cccc(Oc2ccccc2)c1)Nc1cccc(Cl)c1 , thanks.
A: 32

Q: MIC lookup needed for O=C(Cc1cccc(Oc2ccccc2)c1)Nc1cccc([N+](=O)[O-])c1 , thanks.
A: 32

----------
- Test system: Mycobacterium tuberculosis
- Assay Comment: Antitubercular activity against Mycobacterium tuberculosis H37Rv after 7 to 11 days by microdilution method
- Format: functional
Measured Endpoint: MIC90

Example entries and their recorded answers appear below.
>>> result("COc1ccc2nc(NC(=O)Cc3cccc(Oc4ccccc4)c3)sc2c1")
"8 mg/L"
>>> result("O=C(Cc1cccc(Oc2ccccc2)c1)Nc1ccc(F)c(F)c1")
"8 mg/L"
>>> result("O=C(Cc1cccc(Oc2ccccc2)c1)NC(c1ccccc1)c1ccccc1")
"8 mg/L"

Q: Lab request: please report MIC90 under test system Mycobacterium tuberculosis for O=C(Cc1cccc(Oc2ccc(Cl)cc2)c1)Nc1cccc(Cl)c1
A: 16 mg/L

Q: Lab request: please report MIC90 under test system Mycobacterium tuberculosis for O=C(Cc1cccc(Oc2ccc(F)cc2)c1)Nc1cccc(Cl)c1
A: 16 mg/L

Q: Lab request: please report MIC90 under test system Mycobacterium tuberculosis for O=C(Cc1cccc(Oc2ccccc2)c1)Nc1cccc([N+](=O)[O-])c1
A: 16 mg/L

Q: Lab request: please report MIC90 under test system Mycobacterium tuberculosis for O=C(Cc1cccc(Oc2ccccc2)c1)Nc1ccc(Br)cc1Cl
A: 16 mg/L

Q: Lab request: please report MIC90 under test system Mycobacterium tuberculosis for O=C(Nc1cccc(Cl)c1)c1cccc(Oc2ccccc2)c1
A: 16 mg/L

Q: Lab request: please report MIC90 under test system Mycobacterium tuberculosis for O=C(CCCc1cccc(Oc2ccccc2)c1)Nc1cccc(Cl)c1
A: 16 mg/L

----------
Reported inhibition at 48 h, 20 µM values follow for various molecules
- Assay Comment: Growth inhibition of human HepG2 cells at 20 uM after 48 hrs by MTT assay
- Type: cell-based
- Condition: read-out: GI
Answer with a number only, understood to be in %.

Example entries and their recorded answers appear below.
>>> numeric_result("O=C(Cc1cccc(Oc2ccccc2)c1)Nc1ccc(F)c(F)c1")
26.7
>>> numeric_result("O=C(Nc1cccc(Cl)c1)c1ccc(Oc2ccccc2)cc1")
29.2
>>> numeric_result("O=C(Cc1cccc(Oc2ccccc2)c1)Nc1ccc(OC(F)(F)F)cc1")
4.71

Q: inhibition at 48 h, 20 µM lookup needed for COc1ccc(NC(=O)Cc2cccc(Oc3ccccc3)c2)c(OC)c1 , thanks.
A: 4.11

Q: inhibition at 48 h, 20 µM lookup needed for O=C(Nc1cccc(Cl)c1)c1cccc(Oc2ccccc2)c1 , thanks.
A: 7.07

Q: inhibition at 48 h, 20 µM lookup needed for O=C(Cc1cccc(Oc2ccccc2)c1)NC(c1ccccc1)c1ccccc1 , thanks.
A: 4.84

Q: inhibition at 48 h, 20 µM lookup needed for O=C(Cc1cccc(Oc2ccccc2)c1)Nc1ccc(C(F)(F)F)cc1 , thanks.
A: 10.3

Q: inhibition at 48 h, 20 µM lookup needed for COc1ccc2nc(NC(=O)Cc3cccc(Oc4ccccc4)c3)sc2c1 , thanks.
A: 4.29
